Target Or Test System: PI3Kγ (Homo sapiens, UniProt P48736)
Construct: host or cells: THP-1
Sequence (P48736 whole entry): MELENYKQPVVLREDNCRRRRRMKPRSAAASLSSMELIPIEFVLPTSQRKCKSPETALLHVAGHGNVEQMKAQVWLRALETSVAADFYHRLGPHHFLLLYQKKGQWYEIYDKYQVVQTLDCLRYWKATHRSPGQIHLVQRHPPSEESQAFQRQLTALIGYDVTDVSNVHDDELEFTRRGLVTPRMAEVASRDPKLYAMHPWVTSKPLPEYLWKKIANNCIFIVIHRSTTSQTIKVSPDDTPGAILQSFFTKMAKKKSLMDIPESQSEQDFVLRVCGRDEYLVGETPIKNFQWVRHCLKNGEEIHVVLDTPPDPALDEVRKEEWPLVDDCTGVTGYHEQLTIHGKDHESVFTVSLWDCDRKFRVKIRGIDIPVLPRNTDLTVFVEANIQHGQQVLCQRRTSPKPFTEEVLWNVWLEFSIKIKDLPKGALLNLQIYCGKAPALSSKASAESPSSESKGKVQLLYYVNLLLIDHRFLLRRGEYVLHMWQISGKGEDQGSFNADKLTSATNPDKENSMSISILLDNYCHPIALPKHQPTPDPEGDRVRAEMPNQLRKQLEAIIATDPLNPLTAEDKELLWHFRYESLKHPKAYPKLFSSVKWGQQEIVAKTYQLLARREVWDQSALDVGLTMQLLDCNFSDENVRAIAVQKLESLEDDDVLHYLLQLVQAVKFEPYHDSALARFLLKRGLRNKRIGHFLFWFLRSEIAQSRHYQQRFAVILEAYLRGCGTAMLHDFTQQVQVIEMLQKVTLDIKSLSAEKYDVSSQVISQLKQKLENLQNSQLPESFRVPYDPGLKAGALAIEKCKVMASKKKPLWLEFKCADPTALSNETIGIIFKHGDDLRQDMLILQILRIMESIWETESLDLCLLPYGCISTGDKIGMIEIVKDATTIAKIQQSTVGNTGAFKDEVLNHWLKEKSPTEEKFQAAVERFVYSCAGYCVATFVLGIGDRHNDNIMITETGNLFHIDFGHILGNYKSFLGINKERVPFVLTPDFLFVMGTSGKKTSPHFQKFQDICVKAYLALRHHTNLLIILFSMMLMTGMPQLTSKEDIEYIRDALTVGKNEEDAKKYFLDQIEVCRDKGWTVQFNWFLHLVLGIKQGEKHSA
Assay Notes: PI3Kγ cellular assay in THP-1 cells (AKT pS473 AlphaLISA)
Assay type: cell-based
Settings: Table 6, rhMCP-1 stimulated AKT pS473, read-out: cellular potency (PI3Kγ IC50)
Assay Readout: IC50

Below: 5 compounds and their reported IC50.
// IC50 lookup, key: C[C@@H](C1CC1)N1Cc2cc(-c3ccn4nc(N)c(C(=O)Nc5ccc(C(C)(C)O)cc5)c4n3)cc(OC(F)(F)F)c2C1=O
100 to 1000 nM

// IC50 lookup, key: C[C@H](CO)NC(=O)c1c(N)nn2ccc(-c3cc4c(c(OC5CC(F)(F)C5)c3)C(=O)N([C@@H](C)C3CC3)C4)nc12
100 to 1000 nM

// IC50 lookup, key: C[C@@H](C1CC1)N1Cc2cc(-c3ccn4nc(N)c(C(=O)N[C@H]5C[C@](C)(O)C5)c4n3)cc(OC(F)F)c2C1=O
< 100 nM

// IC50 lookup, key: C[C@@H](C1CC1)N1Cc2cc(-c3ccn4nc(N)c(C(=O)N[C@H]5CC[C@@](C)(O)CC5)c4n3)cc(N3CCN(C)CC3)c2C1=O
100 to 1000 nM

// IC50 lookup, key: Nc1nn2ccc(-c3cc4c(c(OC(F)(F)F)c3)C(=O)N([C@@H](CO)C3CC3)C4)nc2c1C(=O)NC1CC1
100 to 1000 nM

New cases:
// IC50 lookup, key: C[C@@H](C1CC1)N1Cc2cc(-c3ccn4nc(N)c(C(=O)NC5CC5)c4n3)cc(C#N)c2C1=O
100 to 1000 nM
